Reference for the values: paper PMC5540273

Listing of entries alongside the reported %Inh.
- Test system: ERK3
- Construct: gene MAPK6
- MEASUREMENT_CONDITIONS: concentration: 1 μM, replicates: in singlicate; n = 1;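 also: KINOMEscan kinase panel screen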
Dear colleague, please return just the value in %, with no unit written.

Cn1cc(-c2ccc3c(c2)CCN3C(=O)Cc2cccc(F)c2)c2c(N)ncnc21 = 0
Nc1ncc(-c2ccc3nccc(-c4ccncc4)c3c2)cc1S(=O)(=O)N1CCOCC1 = 0
Cn1cc(-c2[nH]c3cc(NC(=O)[C@H](N)C4CCCCC4)cc4c3c2C=NNC4=O)cn1 = 0
CCS(=O)(=O)c1ccc(OC)c(Nc2nccc(-c3c(-c4cccc(NC(=O)c5c(F)cccc5F)c4)nn4ncccc34)n2)c1 = 13
Nc1ncc(-c2cccnc2)c2scc(-c3ccc4c(c3)CCN4C(=O)Cc3ccccc3)c12 = 4

Specify reported %Inh for the molecule shown: `CCn1c(-c2nonc2N)nc2c(C#CC(C)(C)O)nc(OC[C@H](N)c3ccccc3)cc21`
0

Specify reported %Inh for the molecule shown: Cl.Cl.NCC(NCc1ccc(-c2ccnc3[nH]ccc23)s1)c1ccccc1 (stereo not drawn)
2

Specify reported %Inh for the molecule shown: `O=C(O)C(F)(F)F.O=C(O)C(F)(F)F.O=c1[nH]ccc2nc(N[C@@H]3CCCNC3)nc(Nc3ccc(S(=O)(=O)N4CCOCC4)cc3)c12`
100

Specify reported %Inh for the molecule shown: `O=C(Nc1n[nH]c2cc(-c3ccoc3)ccc12)C1CC1`
0

Specify reported %Inh for the molecule shown: `COc1cccc(C2=C(Nc3ccc(Cl)c(C(=O)O)c3)C(=O)NC2=O)c1`
0

Specify reported %Inh for the molecule shown: `CCc1ccc(-c2ccc3c(c2)-c2c(cnn2C)S(=O)(=O)N3C)cc1`
0

Specify reported %Inh for the molecule shown: COc1cccc(NC(=O)NC2CCN(c3ccnc(Nc4cc(OC)c(OC)c(OC)c4)n3)C2)c1 (stereo not drawn)
7

Specify reported %Inh for the molecule shown: COc1cc(Nc2nccc(N3CCC(NC(=O)Nc4cccc(C(C)=O)c4)C3)n2)cc(OC)c1OC (stereo not drawn)
9

Specify reported %Inh for the molecule shown: `O=C(Nc1ccccc1F)NC1CCN(c2ccnc(Nc3ccc(F)cc3)n2)CC1`
20

----------
Listing of entries alongside the reported %Inh.
- System: BMPR1A
- MEASUREMENT_CONDITIONS: concentration: 1 μM, replicates: in singlicate; n = 1
Dear colleague, please return just the value in %, with no unit written.

Examples from the recorded data:
Cl.Cl.NCC(NCc1ccc(-c2ccnc3[nH]ccc23)s1)c1ccccc1 (stereo not shown) [GSK1321565] = 0
COc1cc(Nc2nccc(N3CCC(NC(=O)Nc4cccc(C(C)=O)c4)C3)n2)cc(OC)c1OC (stereo not shown) [GSK1379753] = 0
COCCOCCOc1cc2ncc3c4ccc(C#N)cc4[nH]c3c2cc1OC = 0

// switching to the query molecule
Specify reported %Inh for the molecule shown: Nc1ncc(-c2cccnc2)c2scc(-c3ccc4c(c3)CCN4C(=O)Cc3ccccc3)c12 [GSK683281]
6

----------
- Test system: CAMK2B
- MEASUREMENT_CONDITIONS: concentration: 1 μM, replicates: in singlicate; n = 1
Listing of entries alongside the reported %Inh.
Number first, unit second: that is the form wanted.

Examples from the recorded data:
O=C(Nc1cccc(-c2nn3ccccc3c2-c2ccnc(Nc3cccc(C(F)(F)F)c3)n2)c1)c1c(F)cccc1F = 0%
O=c1[nH]cc(-c2ccc(N3CCOCC3)cc2)c2sc(-c3cn[nH]c3)cc12 = 2%
CCn1c(-c2nonc2N)nc2c(C#CC(C)(C)O)ncc(OCCCCN)c21.O=C(O)C(F)(F)F.O=C(O)C(F)(F)F = 0%
Cl.c1ccc(-c2ccc3c(Nc4ccc5[nH]ncc5c4)ccnc3c2)nc1 = 0%
CC(=O)N1CCN(c2ccc(Nc3nccc(-c4sc(C(C)C)nc4-c4cccc(NS(=O)(=O)c5cccc(Cl)c5)c4)n3)cn2)CC1 = 0%

// switching to the query compound
Specify reported %Inh for the compound shown: `Cl.c1ccc(-c2ccc3c(Nc4ccc5[nH]ccc5c4)ccnc3c2)nc1`
0%

----------
- Tested on: PRP4
- MEASUREMENT_CONDITIONS: concentration: 1 μM, replicates: in singlicate; n = 1
Listing of entries alongside the reported %Inh.
Dear colleague, please return just the value in %, with no unit written.

Examples from the recorded data:
CCn1c(-c2nonc2N)nc2c(C#CC(C)(C)O)ncc(OCCCCN)c21.O=C(O)C(F)(F)F.O=C(O)C(F)(F)F = 2
Cc1cccc(NC(=O)Nc2ccc(Oc3ncnc4ccn(C)c34)cc2)c1 = 0
CNC(=O)c1ccccc1Nc1nc(Nc2ccc(N3CCOCC3)cc2)ncc1Cl.Cl = 77
COc1ccc(-c2coc3ccc(-c4nnc(SCc5ccc(OC)c(C(F)(F)F)c5)o4)cc23)cc1 = 15

Specify reported %Inh for the molecule shown: `O=C(Nc1cccc(Oc2ccc3nc(NC(=O)C4CC4)cn3n2)c1)c1ccccc1C(F)(F)F`
5

Specify reported %Inh for the molecule shown: `O=C(Nc1cccc(-c2nn3ccccc3c2-c2ccnc(Nc3cccc(C(F)(F)F)c3)n2)c1)c1c(F)cccc1F`
5

Specify reported %Inh for the molecule shown: `COc1cc(Nc2nccc(-c3c(-c4cccc(NC(=O)c5c(F)cccc5F)c4)nn4ccccc34)n2)cc(OC)c1OC`
1

Specify reported %Inh for the molecule shown: `Nc1ncc(-c2cccnc2)c2scc(-c3ccc4c(c3)CCN4C(=O)Cc3ccccc3)c12`
0

----------
Listing of entries alongside the reported %Inh.
- Test system: ROCK2
- MEASUREMENT_CONDITIONS: concentration: 1 μM, replicates: in singlicate; n = 1
Number first, unit second: that is the form wanted.

COc1cccc(C2=C(Nc3ccc(Cl)c(C(=O)O)c3)C(=O)NC2=O)c1 = 12%

Specify reported %Inh for the compound shown: `Cc1cccc(NC(=O)Nc2ccc(Oc3ncnc4ccn(C)c34)cc2)c1`
0%

Specify reported %Inh for the compound shown: COc1cc(Nc2nccc(N3CCC(NC(=O)Nc4cccc(C(C)=O)c4)C3)n2)cc(OC)c1OC (stereo not drawn)
7%

Specify reported %Inh for the compound shown: `CN(C)S(=O)(=O)c1cc(-c2ccc3nccc(-c4cccc(S(N)(=O)=O)c4)c3c2)cnc1N`
0%

Specify reported %Inh for the compound shown: `COc1cc(Nc2ncc3c(C)nc(-c4cc5ccccc5[nH]4)n3n2)cc(OC)c1OC`
0%

Specify reported %Inh for the compound shown: `CC(=O)N1CCN(c2ccc(Nc3nccc(-c4sc(C(C)C)nc4-c4cccc(NS(=O)(=O)c5cccc(Cl)c5)c4)n3)cn2)CC1`
18%

Specify reported %Inh for the compound shown: `Cl.NC(=O)c1cccc(Nc2nccc(Nc3ccc(Oc4c(Cl)cccc4Cl)c(Cl)c3)n2)c1`
10%

Specify reported %Inh for the compound shown: COc1cccc(NC(=O)NC2CCN(c3ccnc(Nc4cc(OC)c(OC)c(OC)c4)n3)C2)c1 (stereo not drawn)
9%

----------
- System: STK39
- MEASUREMENT_CONDITIONS: concentration: 1 μM, replicates: in singlicate; n = 1
Listing of entries alongside the reported %Inh.
Dear colleague, please return just the value in %, with no unit written.

O=C(Nc1ccccc1F)NC1CCN(c2ccnc(Nc3ccc(F)cc3)n2)CC1 [GSK1379800] = 0

Specify reported %Inh for the compound shown: COc1ccc(Nc2nccc(N3CCC(NC(=O)Nc4cccc(OC)c4)C3)n2)cc1 (stereo not drawn) [GSK1379742]
5

Specify reported %Inh for the compound shown: O=C(Nc1cccc(-c2nn3ccccc3c2-c2ccnc(Nc3cccc(C(F)(F)F)c3)n2)c1)c1c(F)cccc1F [GSK292658]
0

Specify reported %Inh for the compound shown: COC(=O)Nc1nc2cc(Oc3ccc(NC(=O)Nc4cc(C(F)(F)F)ccc4F)cn3)ccc2[nH]1.Cl.Cl [GW681170]
3

----------
- Test system: YANK1
- Construct: gene STK32A
- MEASUREMENT_CONDITIONS: concentration: 1 μM, replicates: in singlicate; n = 1
Listing of entries alongside the reported %Inh.
Dear colleague, please return just the value in %, with no unit written.

Examples from the recorded data:
Cc1ccc(C(=O)Nc2ccc(Nc3ccnc4cc(-c5nccs5)ccc34)cc2O)cc1.Cl = 9
Cc1cccc(Nc2nc(N[C@H]3CCNC3)ncc2C(N)=O)c1.Cl = 19
Cc1ccc(F)c(C(=O)Nc2cccc(-c3nn4ccccc4c3-c3ccnc(Nc4cccc(F)c4)n3)c2)c1F = 6

Provide measured %Inh on YANK1 for `Cl.c1ccc(-c2ccc3c(Nc4ccc5[nH]ccc5c4)ccnc3c2)nc1` please.
0

Provide measured %Inh on YANK1 for `CN(C)Cc1ccc(-c2ccc3c(Nc4ccc(Oc5ccccn5)cc4)ccnc3c2)o1` please.
0

Provide measured %Inh on YANK1 for `Cc1ccc(C(=O)N2CC[C@@H](O)C2)cc1-n1c(C)cc(OCc2ccc(F)cc2F)c(Br)c1=O` please.
0

----------
- Test system: CSNK1G3
- MEASUREMENT_CONDITIONS: concentration: 1 μM, replicates: in singlicate; n = 1
Listing of entries alongside the reported %Inh.
Dear colleague, please return just the value in %, with no unit written.

Examples from the recorded data:
CCCCc1nn2ncccc2c1-c1ccnc(Nc2ccc(N3CCN(C)CC3)cc2)n1 = 0
C[C@@H](Oc1cc(-n2cnc3cc(-c4ccnc(NCCS(C)(=O)=O)c4)ccc32)sc1C(N)=O)c1ccccc1Cl = 14
Cc1ccc(S(=O)(=O)Nc2ccc(Nc3nccc(Nc4cccc5[nH]ncc45)n3)cc2)cc1 = 7
c1ccc(-c2cnc3nccnn23)cc1 = 0
COc1ccc(CNC(=O)NC2CCN(c3ccnc(Nc4ccc(F)cc4)n3)CC2)cc1 = 19

Specify reported %Inh for the molecule shown: `COc1ccc(Nc2nccc(NCCNC(=O)c3cc4ccccc4s3)n2)cc1`
27

Specify reported %Inh for the molecule shown: `CCn1c(-c2nonc2N)nc2c(C#CC(C)(C)O)ncc(OCCCCN)c21.O=C(O)C(F)(F)F.O=C(O)C(F)(F)F`
15

Specify reported %Inh for the molecule shown: `Cn1cc(-c2ccc3c(c2)CCN3C(=O)Cc2cccc(F)c2)c2c(N)ncnc21`
38
